- Tested on: honeybees
- Protocol details: Test for Confirmation of Honeybee Repelling Effect 1, 2, 3 (feeding station with 40% sugar water)
- Type: in vivo
- Condition details: Test 3; 2.0% by weight per volume solution, 5 mL
- Description: […] The “repelling rate Q” and “corrected repelling rate R” were calculated from the above “landing rates” using the calculation formula below. […]
The label is rule met for Corrected repelling rate (%) Honeybees below 80% and rule not met for Corrected repelling rate (%) Honeybees equal to or exceeding 80%.

Use the examples below as a reference point.
Compound | Classification
CCCCCCCC(=O)OCC [y-48, ethyl octanoate] | rule not met
CC(=O)c1ccccc1 | rule not met
c1cnc2c(n1)CCCC2 [y-86, 5,6,7,8-tetrahydroquinoxaline] | rule met

# check: Corrected repelling rate (%) Honeybees < 80% for CCCCSCCCC [y-94, butyl sulfide] rule met

Next compound: CCc1cccnc1 rule met

Next compound: CCOC(=O)Cc1ccccc1 [y-24, ethyl phenylacetate] rule met

Next compound: C=Cc1ccc(OC)cc1 rule not met

Next compound: CC(CC=O)CCCC(C)(C)O (stereo not shown) [y-9, hydroxycitronellal] rule not met

Next compound: CCCC(=O)OCCC(C)C [y-51, isoamyl butyrate] rule met

Next compound: CCC(=O)O [p-8, propionic acid, reference compound] rule met

Next compound: CSCCCO rule not met

Next compound: CC(=O)OCCC(C)C [y-53, isoamyl acetate] rule met

Next compound: CC(C)CCOC(=O)CC(C)C [y-52, isoamyl isovalerate] rule met
